Ref: patent US20130230533A1

- TGT: T1, Dimeric human CD48-mFc (human)
- T1 construct: the whole entry is the construct; also called hCD48-mFc
- T1 chain: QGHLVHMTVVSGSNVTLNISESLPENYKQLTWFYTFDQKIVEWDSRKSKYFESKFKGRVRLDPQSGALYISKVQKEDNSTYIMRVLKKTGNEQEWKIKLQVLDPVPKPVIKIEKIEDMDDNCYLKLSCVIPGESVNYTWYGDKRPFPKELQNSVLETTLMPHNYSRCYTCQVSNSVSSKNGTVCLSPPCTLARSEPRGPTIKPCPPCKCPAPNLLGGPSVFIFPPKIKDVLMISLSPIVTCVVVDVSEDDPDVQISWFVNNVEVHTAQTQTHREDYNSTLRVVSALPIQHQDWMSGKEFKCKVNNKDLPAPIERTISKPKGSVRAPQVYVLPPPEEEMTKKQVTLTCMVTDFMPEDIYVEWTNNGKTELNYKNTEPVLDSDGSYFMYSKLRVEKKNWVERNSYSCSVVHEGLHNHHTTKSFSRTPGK
- EXPERIMENTAL PROTOCOL: SPR (Biacore), antibody captured by anti-Fc, CD48 in solution, 37 C

BINDER	koff [s⁻¹]
H4H1778P (antibody, human IgG4, V domains shown, Human IgG4 Fc (H4H)) VH: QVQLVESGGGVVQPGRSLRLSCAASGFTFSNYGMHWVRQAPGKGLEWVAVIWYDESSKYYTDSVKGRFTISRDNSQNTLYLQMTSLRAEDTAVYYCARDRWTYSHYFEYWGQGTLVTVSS VL: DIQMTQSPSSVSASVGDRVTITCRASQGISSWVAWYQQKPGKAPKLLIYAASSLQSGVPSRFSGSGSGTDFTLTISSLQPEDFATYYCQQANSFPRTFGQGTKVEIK	3.53e-05
H2M1707N (antibody, V domains shown, Human variable domains, mouse IgG2 Fc (H2M)) VH: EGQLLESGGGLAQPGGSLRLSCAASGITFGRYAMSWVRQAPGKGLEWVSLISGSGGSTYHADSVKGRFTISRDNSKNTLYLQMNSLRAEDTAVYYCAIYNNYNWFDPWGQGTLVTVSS VL: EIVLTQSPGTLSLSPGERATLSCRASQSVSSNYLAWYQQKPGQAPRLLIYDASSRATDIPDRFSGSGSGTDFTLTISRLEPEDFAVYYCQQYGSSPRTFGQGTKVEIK	0.000227
H4H1779P (antibody, human IgG4, V domains shown, Human IgG4 Fc (H4H)) VH: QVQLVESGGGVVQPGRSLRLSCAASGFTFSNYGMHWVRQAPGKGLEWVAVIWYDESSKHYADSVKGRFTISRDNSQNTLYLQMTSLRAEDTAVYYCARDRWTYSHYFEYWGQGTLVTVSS VL: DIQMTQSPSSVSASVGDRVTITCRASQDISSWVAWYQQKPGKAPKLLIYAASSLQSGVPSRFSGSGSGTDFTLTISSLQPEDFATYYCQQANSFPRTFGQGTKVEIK	4.59e-05
